In this section we review reported growth values for a set of compounds.
# System: SN12C renal
# measurementDescription: NCI-60 one-dose screen, 48 h (100 = growth as untreated, 0 = no growth, -100 = all killed)
# testContext: 10 µM unless noted
The panel holds about 83,000 compounds, 20% with a hit somewhere; the sample as a whole holds those more often.
Enter your answer as a number in %; do not include the unit.

INSERT INTO measurements (compound, propertymeasured, readoutvalue) VALUES
  ('COc1cc(NC(C)CCCNC2CN3CCC2CC3)c2ncccc2c1 (stereo unspecified)', 'growth', 86);

Notebook: "N#CC1(c2ccccc2)CCN(Cc2ccccc2)CC1" , growth read as 114

Notebook: CC1[C@H](C)OC(=O)CC(O)CC(O)CC(O)CCC(O)C(O)C[C@]2(O)CC(O)C(C(=O)O)C(CC(OC3O[C@H](C)[C@@H](O)[C@H](N)[C@@H]3O)/C=C/C=C/C=C/C=C/CC/C=C/C=C/[C@H](C)[C@H]1O)O2 (stereo partly specified) , growth read as 98.5

Notebook: "CC1=C(CN)C2=C(C)C3(CC3)[C@@](C)(O)C(=O)C2=C1" , growth read as 90.2

Notebook: "Fc1ccc(N2COOC3(OOC2)C2CC4CC(C2)CC3C4)cc1" , growth read as 101

Notebook: "CN1C(=O)C(=Cc2cn(Cc3ccccc3)c3ccccc23)C(=O)N(C)C1=O" , growth read as 103
